pKi: −log10 of the molar value.
Heads up, these molecules all have pKi values measured for Melanin-concentrating hormone receptor 1 (Homo sapiens, UniProt Q99705).

structure_smiles | measured_on | pKi
COc1cc(-n2cnn3cc(-c4ncc(Cl)cn4)cc3c2=O)ccc1OCC(C)(C)O | Melanin-concentrating hormone receptor 1 (Homo sapiens, UniProt Q99705) | 7.89
COc1cc(-n2cnn3cc(-c4ccc(Cl)cn4)cc3c2=O)ccc1N1CC[C@@H](O)C1 | Melanin-concentrating hormone receptor 1 (Homo sapiens, UniProt Q99705) | 8.04
COc1cc(-n2cnn3cc(-c4ccc(Cl)cn4)cc3c2=O)ccc1OC[C@H](O)C1CC1 | Melanin-concentrating hormone receptor 1 (Homo sapiens, UniProt Q99705) | 8.19
O=c1c2cc(-c3ccc(Cl)cc3)cn2ncn1-c1ccc(N2CC(O)C2)nc1 | Melanin-concentrating hormone receptor 1 (Homo sapiens, UniProt Q99705) | 7.82
